# assay.overview: Half life in human liver microsomes
# Assay type: ADME, Microsome
recorded.metric: half-life (min)
Return type: number; implicit unit min.

Please fill in: half-life reported for CC(C)NC(=O)N(C)c1cnc2ccc(-c3ccc(OCCCN4CCCCC4)nc3)cc2n1 = 770

* * *

# System: U2OS
# assay.overview: cells
# particulars: Homo sapiens
# Description: Cytotoxicity against human U2OS cells assessed as reduction in cell viability
recorded.metric: IC50

Please fill in: IC50 reported for O=c1cc(N2CCOCC2)cc(N2CC3CC3[C@H]2Cc2ccccc2)[nH]1 (some centres undefined) = 3400 nM

Please fill in: IC50 reported for C[C@H]1CCN(c2nc(N3CCOCC3)cc(=O)[nH]2)[C@@H]1Cc1ccccc1 = 90 nM

Please fill in: IC50 reported for O=c1cc(N2CCOCC2)cc(N2CCCCC[C@H]2Cc2ccccc2)[nH]1 = 230 nM

Please fill in: IC50 reported for O=c1cc(N2CCOCC2)cc(N2C[C@@H]3C[C@@H]3[C@H]2Cc2ccccc2)[nH]1 = 300 nM
